Hey, just so you know, these numbers are from patent US20240116985A1.

# measured on: T1, full-length beta-Catenin (Uniprot ID P35222) (Homo sapiens (Human), UniProt P35222 2-781)
# T1 construct: also called bCat; B-Catenin
# T1 sequence: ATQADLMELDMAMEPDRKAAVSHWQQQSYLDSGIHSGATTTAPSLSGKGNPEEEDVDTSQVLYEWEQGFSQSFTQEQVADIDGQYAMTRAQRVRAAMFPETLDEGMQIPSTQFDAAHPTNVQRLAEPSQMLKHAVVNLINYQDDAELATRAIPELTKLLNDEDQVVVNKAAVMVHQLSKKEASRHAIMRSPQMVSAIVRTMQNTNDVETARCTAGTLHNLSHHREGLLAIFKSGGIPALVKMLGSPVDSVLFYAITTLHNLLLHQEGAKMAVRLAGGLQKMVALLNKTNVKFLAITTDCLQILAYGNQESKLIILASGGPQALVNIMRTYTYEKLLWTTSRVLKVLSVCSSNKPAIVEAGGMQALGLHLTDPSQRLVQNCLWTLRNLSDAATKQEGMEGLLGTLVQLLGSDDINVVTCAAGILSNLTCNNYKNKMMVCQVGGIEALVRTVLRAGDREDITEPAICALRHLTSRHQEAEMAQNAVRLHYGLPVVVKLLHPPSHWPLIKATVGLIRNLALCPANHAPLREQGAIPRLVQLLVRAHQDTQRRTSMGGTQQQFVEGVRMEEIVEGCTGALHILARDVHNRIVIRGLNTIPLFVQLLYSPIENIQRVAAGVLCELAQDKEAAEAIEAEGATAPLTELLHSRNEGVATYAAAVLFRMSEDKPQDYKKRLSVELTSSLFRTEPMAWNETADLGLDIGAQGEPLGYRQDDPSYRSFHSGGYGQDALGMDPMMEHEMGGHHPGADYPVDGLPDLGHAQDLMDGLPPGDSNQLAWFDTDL
# experiment summary: fluorescence polarization competition; 10 nM full-length beta-catenin + 10 nM 5FAM-TCF4(10-53) probe, peptide titrated
Starred links: 1 amine or outer side, 2 acyl side, 3 side chain; linkers in the order of their positions; H or OH if unused. Positions of bridges follow the written chain, without caps; N, C: chain ends. Non-standard residues stand in square brackets, D forms with d. Primed or numbered codes have the meaning given here. SeN″ = (S)-5-(((allyloxy)carbonyl)(methyl)amino)-2-amino-2-methylpentanoic acid (stapling residue), C=CCOC(=O)N(C)CCC[C@](C)(N[*:1])C(=O)[*:2]; B5(16) = 2-amino-2-(pent-4-en-1-yl)hept-6-enoic acid = 2,2-bis(4-pentenyl)glycine (stitching residue), C=CCCCC(CCCC=C)(N[*:1])C(=O)[*:2]; B5(23) = 2-amino-2-(pent-4-en-1-yl)hept-6-enoic acid (2,2-bis(4-pentenyl)glycine), stitching residue, C=CCCCC(CCCC=C)(N[*:1])C(=O)[*:2]; Phe(3-F) = N[C@@H](Cc1cccc(F)c1)C(=O)O; His(τ-Me) = Cn1cnc(C[C@H](N)C(=O)O)c1; Bta = N[C@@H](Cc1csc2ccccc12)C(=O)O; αAllylPro = C=CC[C@@]1(C(=O)O)CCCN1; S8 = C=CCCCCCC[C@](C)(N)C(=O)O
measured property: pEC50
Please report pEC50 as the negative decimal logarithm of the molar concentration, giving only the number.

Ac-[αAllylPro]DA[B5(23)]DEAAFT[S8]F[Bta]Q-NH2 (staple 1-4, 4-11, Stapled (stitched) peptide) [I-423] ... 6.98
Ac-[αAllylPro]DA[B5(16)]DHAAFQ[SeN″][Phe(3-F)][Bta]Q-NH2 (staple 1-4, 4-11; not fully specified; printed as Ac-PL3-Asp-Ala-B5-Asp-His-Ala-Ala-Phe-Gln-SeN-3FF-BztA-Gln-NH2, Stapled (stitched) peptide) [I-400] ... 5.45
Ac-[αAllylPro]DA[B5(23)]DEAAFT[S8]F[Bta]H-NH2 (staple 1-4, 4-11, Stapled (stitched) peptide) [I-420] ... 6.89

Alright, here's another binder for you.
GET /value?item= Ac-[αAllylPro]DA[B5(23)]D[His(τ-Me)]AAFV[S8][Phe(3-F)][Bta]Q-NH2 (staple 1-4, 4-11, Stapled (stitched) peptide) [I-403] &field=pEC50 returns 5.67
